Please provide measured Activity for the entries that follow.
Tested on: GABA transporter 3 (Mus musculus)
method-notes: Inhibition of mouse GAT3 expressed in HEK293 cells assessed as remaining [3H]GABA uptake at 100 uM preincubated for 25 mins followed by [3H]GABA addition and measured after 4 mins by liquid scintillation counting method
Numbers only, in %.

Each compound below has a recorded value; state its Activity.
1. O=C(O)C1CCCN(C/C=C/CC(c2ccccc2)(c2ccccc2)c2ccccc2)C1 (racemic)
2. COc1ccc(C(/C=C/CN2CCCC(C(=O)O)C2)(c2ccc(OC)cc2)c2nccn2C)cc1 (racemic)
3. COc1ccc(CC(/C=C/CN2CCCC(C(=O)O)C2)(c2ccc(OC)cc2)c2ccc(OC)cc2)cc1 (racemic)
4. COc1ccc(C(/C=C/CN2CCCC(C(=O)O)C2)(Cc2ccccc2)c2ccc(OC)cc2)cc1 (racemic)
5. O=C(O)C1CCCN(C/C=C/CC(c2ccccc2)c2ccccc2)C1 (racemic)

Result ::
1: 56; 2: 83; 3: 53; 4: 66; 5: 69
